experiment: Solubility screening of Formula (I) in crystallization solvents at RT and 50° C. (TABLE 3); assay type: physicochemical; conditions: dichloromethane (DCM), organic solvent or mixture, thermodynamic from solid, DCM; RT; read-out: Solubility Range
PROPERTY: solubility

Reported solubility of `CC[C@H](C)C(=O)N1CCC(NC(=O)Nc2ccc(OC(F)(F)F)c(F)c2)CC1` : ≥ 46.6 mg/mL

* * *

assay: Solubility screening of Formula (I) in crystallization solvents at RT and 50° C. (TABLE 3); assay type: physicochemical; settings: dioxane, organic solvent or mixture, thermodynamic from solid, Dioxane; RT; read-out: Nominal Solubility
PROPERTY: solubility (µg/mL)
Numbers only, in µg/mL.

Reported solubility of CC[C@H](C)C(=O)N1CCC(NC(=O)Nc2ccc(OC(F)(F)F)c(F)c2)CC1 [Formula (I)] : 9360

* * *

Test: Equilibrium-solubility screening in solvents and excipients
Type: physicochemical
Details: Canola Oil, oil or lipid, thermodynamic from solid
Protocol: For these analyses, Form D or Form C was mixed with 0.5 or 1.0 mL of solvents and equilibrated for approximately 24 hours. The mixture was filtered through 0.45 μm centrifuge filters. As expected, the compound was not easily ionized at physiologically relevant pH. […] In addition, these excipients included surfactants, co-solvents, and lipids which are amenable for use in self-emulsifying drug delivery systems (SEDDS). […]
PROPERTY: solubility thermodynamic at 24 h

Reported solubility thermodynamic at 24 h of CC[C@H](C)C(=O)N1CCC(NC(=O)Nc2ccc(OC(F)(F)F)c(F)c2)CC1 [Form D] : < 100 µg/mL

* * *

experiment: Solubility of Form C in binary solvent systems (TABLE 22); type: physicochemical; conditions: ethyl acetate/n-heptane, organic solvent or mixture; EtoAC, ratio of n-heptane to primary 1.4 (1st test point)
PROPERTY: solubility (µg/mL)
Give bare numbers, in µg/mL.

Reported solubility of CC[C@H](C)C(=O)N1CCC(NC(=O)Nc2ccc(OC(F)(F)F)c(F)c2)CC1 [Form C] : 7000

* * *

Test: Solubility screening of Formula (I) in crystallization solvents at RT and 50° C. (TABLE 3)
Type: physicochemical
Conditions: dioxane, organic solvent or mixture, thermodynamic from solid, Dioxane; RT; read-out: Solubility Range
Description: This example covers crystallization of Formula (I) in multiple solvent systems. Solvents were selected to span a range of polarities, functionalities, and classifications according to the International Conference on Harmonization (ICH) with preferences given to class II and class III solvents. […] After each addition of solvent, the vials were shaken and visually inspected for residual solids. […]
PROPERTY: solubility

Reported solubility of CC[C@H](C)C(=O)N1CCC(NC(=O)Nc2ccc(OC(F)(F)F)c(F)c2)CC1 [Formula (I)] : 9.36 to 23.4 mg/mL

* * *

test: Equilibrium-solubility screening in solvents and excipients; type: physicochemical; conditions: pH 7.4 medium (buffer not named), pH 7.4, aqueous buffer, thermodynamic from solid, pH 7.4
PROPERTY: solubility thermodynamic at 24 h

Reported solubility thermodynamic at 24 h of CC[C@H](C)C(=O)N1CCC(NC(=O)Nc2ccc(OC(F)(F)F)c(F)c2)CC1 [Form D] : < 100 µg/mL

* * *

test: Solubility screening of Formula (I) in crystallization solvents at RT and 50° C. (TABLE 3); type: physicochemical; conditions: ethanol, organic solvent or mixture, thermodynamic from solid, EtOH; RT; read-out: Solubility Range
PROPERTY: solubility

Reported solubility of `CC[C@H](C)C(=O)N1CCC(NC(=O)Nc2ccc(OC(F)(F)F)c(F)c2)CC1` : ≥ 41.2 mg/mL
